System: 873145-292-R-J1-PDC complex spheroid viability;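 further: luminescence signal used as surrogate for viable cell content; spheroids exposed to compounds for 7 days before viability readout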
Assay Explanation: Anticancer human tumor 873145-292-R-J1-PDC patient-derived renal clear cell carcinoma cell line growth inhibition [POLQ]
Assay Context: second compound 1 µM; first compound 1 µM; stronger effect = lower value
Labelling field: enter Met if recorded viability, T/C is less than 90%. Enter Not met if it equals or exceeds that cut-off.

Req: Does the reported viability, T/C of the following molecule sit strictly below 90%? CC1COCCN1c1cc(C2(O)CC3CCC(C2)O3)c2cnn(-c3ccn[nH]3)c2n1 (configuration not stated) + COC1C(OC(N)=O)C(O)C(Oc2ccc3c(O)c(NC(=O)c4ccc(O)c(CC=C(C)C)c4)c(=O)oc3c2C)OC1(C)C
Resp: Met

Req: Does the reported viability, T/C of the following molecule sit strictly below 90%? C#Cc1c(F)ccc2cc(O)cc(-c3ncc4c(N5CC6CCC(C5)N6)nc(OCC56CCCN5CC(F)C6)nc4c3F)c12 (configuration not stated) + Nc1ccc(C#CCN(C(=O)Cc2ncc(C(F)(F)F)cc2C(F)(F)F)c2ccc(F)cc2)nn1
Resp: Not met

Req: Does the reported viability, T/C of the following molecule sit strictly below 90%? CNCc1ccc(-c2[nH]c3cc(F)cc4c3c2CCNC4=O)cc1 + Cc1cccc(N(C)C(=O)C2C(O)CCN2c2nc(C)cc(C(F)(F)F)c2C#N)c1
Resp: Not met

Req: Does the reported viability, T/C of the following molecule sit strictly below 90%? CC1COCCN1c1cc(C2(S(C)(=N)=O)CC2)nc(-c2ccnc3[nH]ccc23)n1 (configuration not stated) + COC1C(OC(N)=O)C(O)C(Oc2ccc3c(O)c(NC(=O)c4ccc(O)c(CC=C(C)C)c4)c(=O)oc3c2C)OC1(C)C
Resp: Not met

Req: Does the reported viability, T/C of the following molecule sit strictly below 90%? O=C(Nc1ccc(O)c(NS(=O)(=O)c2ccc(F)cc2)c1)c1ccc(-c2ccccc2)cc1 + Cc1cccc(N(C)C(=O)C2C(O)CCN2c2nc(C)cc(C(F)(F)F)c2C#N)c1
Resp: Not met

Req: Does the reported viability, T/C of the following molecule sit strictly below 90%? CCc1cc2c(N3CCc4c(cc(Cn5ccnc5)cc4-c4cn(C)nc4C(F)(F)F)C3=O)ccnc2c(OC)n1 + Cc1cccc(N(C)C(=O)C2C(O)CCN2c2nc(C)cc(C(F)(F)F)c2C#N)c1
Resp: Not met
